// provenance: ChEMBL document CHEMBL1149257

Recorded measurements of inhibition at 10 µM, one per entry
STUDY_TARGET: CYP2D6 (Homo sapiens, UniProt P10635)
Sequence (P10635 whole entry): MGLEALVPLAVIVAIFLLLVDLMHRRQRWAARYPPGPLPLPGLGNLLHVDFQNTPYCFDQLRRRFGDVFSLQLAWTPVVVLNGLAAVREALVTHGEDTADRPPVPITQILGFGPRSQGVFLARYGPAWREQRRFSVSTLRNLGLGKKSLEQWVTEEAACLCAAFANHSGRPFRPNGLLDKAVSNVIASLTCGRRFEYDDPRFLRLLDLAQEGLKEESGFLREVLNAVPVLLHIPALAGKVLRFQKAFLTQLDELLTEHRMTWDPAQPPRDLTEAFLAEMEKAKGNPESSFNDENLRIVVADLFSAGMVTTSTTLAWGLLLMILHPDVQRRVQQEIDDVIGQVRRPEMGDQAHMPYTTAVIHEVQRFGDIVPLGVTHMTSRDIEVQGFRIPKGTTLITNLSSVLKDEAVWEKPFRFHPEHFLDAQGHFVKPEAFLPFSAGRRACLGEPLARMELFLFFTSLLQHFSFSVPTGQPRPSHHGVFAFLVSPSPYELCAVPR
ASSAY_NAME: Inhibition of human liver CYP2D6 at 10 uM
Assay type: ADME
# unit: % | format: bare number

CSc1nc(-c2ccc(F)cc2)c(-c2ccnc(NC(C)=O)c2)n1CCN1CCCCC1	77.5
COCCn1c(SC)nc(-c2ccc(F)cc2)c1-c1ccnc(NC(C)=O)c1	3.5

Lab note: next molecule to report on.
Q: I would be grateful if you could share the reported inhibition at 10 µM for `CSc1nc(-c2ccc(F)cc2)c(-c2ccnc(NC(C)=O)c2)n1CCOCCO` .
Result: 0

====

STUDY_TARGET: Mitogen-activated protein kinase 14 (Homo sapiens, UniProt Q16539)
Sequence (Q16539 whole entry): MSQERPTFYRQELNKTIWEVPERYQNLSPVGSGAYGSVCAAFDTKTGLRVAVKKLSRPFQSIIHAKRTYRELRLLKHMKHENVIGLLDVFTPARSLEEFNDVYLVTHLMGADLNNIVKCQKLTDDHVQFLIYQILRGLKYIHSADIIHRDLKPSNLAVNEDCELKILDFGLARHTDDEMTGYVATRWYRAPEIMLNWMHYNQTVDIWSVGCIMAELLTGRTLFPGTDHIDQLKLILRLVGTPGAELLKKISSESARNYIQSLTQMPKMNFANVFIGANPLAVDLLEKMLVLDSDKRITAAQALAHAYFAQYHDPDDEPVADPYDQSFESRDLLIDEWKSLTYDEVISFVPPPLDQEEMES
ASSAY_NAME: Inhibition of mitogen-activated protein kinase p38 alpha
REPORTED_METRIC: log10(IC50) (log10 of the value in µM)
A difference of one corresponds to tenfold IC50; all values are log10 with IC50 in µM.

Q: So what does the record say about log10(IC50) for `CC(=O)Nc1cc(-c2c(-c3ccc(F)cc3)nc(SCCCC(=O)N3CCOCC3)n2CCO)ccn1` ?
Result: 0.30

Q: # log10(IC50) lookup, item `CSCCn1c(SC)nc(-c2ccc(F)cc2)c1-c1ccnc(NC(C)=O)c1`
Result: -0.37

Q: Entry under review: CSc1nc(-c2ccc(F)cc2)c(-c2ccnc(NC(C)=O)c2)n1CC1COC(C)(C)O1 (stereo not drawn) . Reported log10(IC50)?
Result: 0.57

Q: // query log10(IC50) value for entry `CC(=O)Nc1cc(-c2c(-c3ccc(F)cc3)nc(SCCC(=O)N3CCOCC3)n2CCO)ccn1`
Result: 0.40

Q: Entry CC(=O)Nc1cc(-c2c(-c3ccc(F)cc3)nc(SCc3ccc([S+](C)[O-])cc3)n2C)ccn1 (stereo not drawn) has what log10(IC50)?
Result: 0.77

Q: If you can, please state the reported log10(IC50) value of CSc1nc(-c2ccc(F)cc2)c(-c2ccnc(NC(C)=O)c2)n1CC(C)O (stereo not drawn) .
Result: 0.94

====

Listing of entries alongside the reported inhibition at 10 µM.
STUDY_TARGET: CYP2C19 (Homo sapiens)
Sequence (P33261 whole entry): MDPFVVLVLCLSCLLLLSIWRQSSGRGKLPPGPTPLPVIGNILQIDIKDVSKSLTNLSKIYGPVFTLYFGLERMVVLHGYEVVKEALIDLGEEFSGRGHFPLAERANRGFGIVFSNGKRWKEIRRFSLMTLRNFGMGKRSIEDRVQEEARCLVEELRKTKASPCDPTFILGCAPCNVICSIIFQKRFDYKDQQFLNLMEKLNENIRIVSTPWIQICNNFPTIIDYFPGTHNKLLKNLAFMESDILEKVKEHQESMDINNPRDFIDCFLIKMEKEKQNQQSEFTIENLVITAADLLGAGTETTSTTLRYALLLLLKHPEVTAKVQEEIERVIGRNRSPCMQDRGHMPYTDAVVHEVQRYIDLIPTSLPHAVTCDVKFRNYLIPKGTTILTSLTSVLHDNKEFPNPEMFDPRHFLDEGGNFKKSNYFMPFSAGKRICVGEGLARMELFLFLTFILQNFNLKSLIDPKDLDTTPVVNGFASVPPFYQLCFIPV
ASSAY_NAME: Inhibition of human liver CYP2C19 at 10 uM
Format: ADME
All answers are understood in %, so give the number only.

Q: Could you share which inhibition at 10 µM value was measured for `CSc1nc(-c2ccc(F)cc2)c(-c2ccnc(NC(C)=O)c2)n1CCN1CCCCC1` ?
Result: 41

Q: Would you kindly share the measured inhibition at 10 µM for `CSc1nc(-c2ccc(F)cc2)c(-c2ccnc(NC(C)=O)c2)n1CCOCCO` ?
Result: 19

Q: Item `COCCn1c(SC)nc(-c2ccc(F)cc2)c1-c1ccnc(NC(C)=O)c1` has what recorded inhibition at 10 µM?
Result: 70.5

====

Form field: inhibition at 10 µM (one value per entry).
STUDY_TARGET: CYP1A2 (Homo sapiens)
Sequence (P05177 whole entry): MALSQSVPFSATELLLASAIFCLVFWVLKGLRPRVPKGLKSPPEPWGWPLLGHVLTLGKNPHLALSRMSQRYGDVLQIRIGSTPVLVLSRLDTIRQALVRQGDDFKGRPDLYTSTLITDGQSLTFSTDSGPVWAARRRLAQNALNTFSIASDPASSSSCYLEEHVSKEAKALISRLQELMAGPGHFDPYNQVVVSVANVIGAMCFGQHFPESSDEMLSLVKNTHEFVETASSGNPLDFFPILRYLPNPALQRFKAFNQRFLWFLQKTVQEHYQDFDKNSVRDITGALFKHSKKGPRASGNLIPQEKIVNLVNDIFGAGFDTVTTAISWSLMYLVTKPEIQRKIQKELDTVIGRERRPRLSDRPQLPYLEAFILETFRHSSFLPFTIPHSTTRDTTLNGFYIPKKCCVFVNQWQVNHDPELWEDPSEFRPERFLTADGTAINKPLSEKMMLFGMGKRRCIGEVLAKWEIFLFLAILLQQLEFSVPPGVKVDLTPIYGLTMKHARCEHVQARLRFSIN
ASSAY_NAME: Inhibition of human liver CYP1A2 at 10 uM
Format: ADME
Record the result as number plus unit.

COCCn1c(SC)nc(-c2ccc(F)cc2)c1-c1ccnc(NC(C)=O)c1	0%
CSc1nc(-c2ccc(F)cc2)c(-c2ccnc(NC(C)=O)c2)n1CCN1CCCCC1	12%

Please turn your attention to the following entry.
Q: Give its inhibition at 10 µM value. Item: `CSc1nc(-c2ccc(F)cc2)c(-c2ccnc(NC(C)=O)c2)n1CCOCCO`
Result: 0%
